Data provenance: patent US20100016396A1

Below, each entry is listed alongside its reported pEC50.
# Test target: PPARγ-RXRα heterodimer (Homo sapiens, UniProt P37231)
# Sequence (P37231 1-505): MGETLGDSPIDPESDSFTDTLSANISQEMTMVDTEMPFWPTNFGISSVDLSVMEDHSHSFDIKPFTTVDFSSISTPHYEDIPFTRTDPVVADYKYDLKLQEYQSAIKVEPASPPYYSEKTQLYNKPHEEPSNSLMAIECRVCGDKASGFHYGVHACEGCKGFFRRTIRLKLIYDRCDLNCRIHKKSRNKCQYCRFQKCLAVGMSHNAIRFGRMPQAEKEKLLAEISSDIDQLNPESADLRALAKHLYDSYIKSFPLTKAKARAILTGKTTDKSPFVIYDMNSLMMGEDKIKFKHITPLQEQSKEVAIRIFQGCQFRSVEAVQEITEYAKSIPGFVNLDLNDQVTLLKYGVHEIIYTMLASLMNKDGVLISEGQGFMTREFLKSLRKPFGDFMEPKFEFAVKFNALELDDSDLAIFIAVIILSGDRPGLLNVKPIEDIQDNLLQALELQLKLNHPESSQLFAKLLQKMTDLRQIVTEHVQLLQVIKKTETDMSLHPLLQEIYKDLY
# Sequence (P19793 1-462 partner): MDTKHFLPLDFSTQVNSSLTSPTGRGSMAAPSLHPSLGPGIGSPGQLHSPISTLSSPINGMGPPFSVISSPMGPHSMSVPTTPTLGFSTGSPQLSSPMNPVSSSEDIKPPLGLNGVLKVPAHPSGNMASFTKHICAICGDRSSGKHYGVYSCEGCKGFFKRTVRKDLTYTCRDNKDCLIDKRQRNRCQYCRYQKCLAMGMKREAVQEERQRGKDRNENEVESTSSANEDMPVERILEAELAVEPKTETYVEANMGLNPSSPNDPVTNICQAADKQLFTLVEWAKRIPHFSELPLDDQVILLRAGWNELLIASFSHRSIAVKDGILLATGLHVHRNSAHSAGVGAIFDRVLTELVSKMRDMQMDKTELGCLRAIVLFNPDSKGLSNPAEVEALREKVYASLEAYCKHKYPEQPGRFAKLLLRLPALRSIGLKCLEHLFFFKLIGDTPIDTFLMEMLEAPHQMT
# Assay method text: PPARγ-RXRα heterodimer ligand activity (luciferase reporter in PPARγ:RXRα:4ERPP/CHO-K1 cells)
# Condition set: luciferase induction ratio, 1 day culture, concentration showing 50% of the maximum induction ratio
pEC50: −log10 of the molar value.
Measure: pEC50

> print(dat)
                                   compound                               test.target  measure  obs.value
1  Cc1nn(C)c(Sc2cc(O[C@@H](C)C(=O)O)c(Cl)cc2Cl)c1C#N [Example 210]  PPARγ-RXRα heterodimer (Homo sapiens, UniProt P37231)    pEC50       8.00
2  Cc1nn(C)c(Oc2cc(O[C@@H](C)C(=O)O)c(Cl)cc2Cl)c1C=NOCc1ccccc1 [Example 125]  PPARγ-RXRα heterodimer (Homo sapiens, UniProt P37231)    pEC50       8.51
3  C[C@H](Oc1cc(Oc2c3c(nn2C)CCCC3)c(Cl)cc1Cl)C(=O)O [Example 31]  PPARγ-RXRα heterodimer (Homo sapiens, UniProt P37231)    pEC50       8.03
4  CCNC(=O)OCCCc1c(C)nn(C)c1Oc1cc(O[C@@H](C)C(=O)O)c(Cl)cc1Cl [Example 298]  PPARγ-RXRα heterodimer (Homo sapiens, UniProt P37231)    pEC50       7.77

###

# Test target: PPARγ-RXRα heterodimer (Homo sapiens, UniProt P37231)
# Sequence (P37231 1-505): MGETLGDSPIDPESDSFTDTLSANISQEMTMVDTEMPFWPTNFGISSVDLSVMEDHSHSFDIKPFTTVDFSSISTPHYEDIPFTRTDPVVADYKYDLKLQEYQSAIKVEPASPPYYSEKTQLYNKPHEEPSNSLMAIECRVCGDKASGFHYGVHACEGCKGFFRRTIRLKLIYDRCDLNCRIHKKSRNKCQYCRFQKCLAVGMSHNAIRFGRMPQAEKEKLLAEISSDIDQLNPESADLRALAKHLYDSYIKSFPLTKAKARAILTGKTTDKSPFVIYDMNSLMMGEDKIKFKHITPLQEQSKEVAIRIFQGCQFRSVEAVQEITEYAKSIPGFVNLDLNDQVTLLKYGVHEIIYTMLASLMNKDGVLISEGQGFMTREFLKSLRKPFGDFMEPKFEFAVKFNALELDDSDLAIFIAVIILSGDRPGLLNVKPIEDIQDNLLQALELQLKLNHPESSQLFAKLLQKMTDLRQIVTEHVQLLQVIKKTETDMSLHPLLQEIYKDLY
# Sequence (P19793 1-462 partner): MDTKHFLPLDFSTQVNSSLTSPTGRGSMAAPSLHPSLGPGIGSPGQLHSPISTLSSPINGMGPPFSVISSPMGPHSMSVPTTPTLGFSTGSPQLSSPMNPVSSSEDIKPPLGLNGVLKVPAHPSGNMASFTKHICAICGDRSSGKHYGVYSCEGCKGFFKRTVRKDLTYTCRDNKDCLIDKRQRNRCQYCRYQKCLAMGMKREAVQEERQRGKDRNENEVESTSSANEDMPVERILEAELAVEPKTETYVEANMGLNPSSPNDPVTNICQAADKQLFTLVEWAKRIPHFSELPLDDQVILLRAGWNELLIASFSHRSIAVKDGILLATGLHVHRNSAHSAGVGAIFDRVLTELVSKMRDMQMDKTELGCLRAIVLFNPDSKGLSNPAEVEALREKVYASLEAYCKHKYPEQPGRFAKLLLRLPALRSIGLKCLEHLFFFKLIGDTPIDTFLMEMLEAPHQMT
# Assay method text: PPARγ-RXRα heterodimer ligand activity (luciferase reporter in PPARγ:RXRα:4ERPP/CHO-K1 cells)
# Condition set: luciferase induction ratio, 1 day culture, concentration showing 50% of the maximum induction ratio
In this section, each of the molecules is paired with its reported EC50.
Measure: EC50 (nM)

> print(dat)
                                smiles.data                               test.target  obs.value
1  C=Cc1c(C)nn(C)c1Oc1cc(O[C@@H](C)C(=O)O)c(Cl)cc1Cl  PPARγ-RXRα heterodimer (Homo sapiens, UniProt P37231)          5
2  CCc1c(C(F)(F)F)nn(C)c1Oc1cc(O[C@@H](C)C(=O)O)c(Cl)cc1Cl  PPARγ-RXRα heterodimer (Homo sapiens, UniProt P37231)        9.9
3  Cc1c(C(F)(F)F)nn(C)c1Oc1cc(O[C@@H](C)C(=O)O)c(Cl)cc1Cl  PPARγ-RXRα heterodimer (Homo sapiens, UniProt P37231)         13
4  CCC/C=C/c1c(C)nn(C)c1Oc1cc(O[C@@H](C)C(=O)O)c(Cl)cc1Cl  PPARγ-RXRα heterodimer (Homo sapiens, UniProt P37231)          2
5  Cc1nn(C)c(Oc2cc(O[C@@H](C)C(=O)O)c(Cl)cc2Cl)c1C  PPARγ-RXRα heterodimer (Homo sapiens, UniProt P37231)         24
6  C=Cc1c(C(F)(F)F)nn(C)c1Oc1cc(O[C@@H](C)C(=O)O)c(Cl)cc1Cl  PPARγ-RXRα heterodimer (Homo sapiens, UniProt P37231)        3.7

###

Attribute: EC50
# Test target: PPARγ-RXRα heterodimer (Homo sapiens)
# Assay method text: PPARγ-RXRα heterodimer ligand activity (luciferase reporter in PPARγ:RXRα:4ERPP/CHO-K1 cells)
# Condition set: luciferase induction ratio, 1 day culture, concentration showing 50% of the maximum induction ratio
Measure: EC50

> print(dat)
                                smiles.data  obs.value
1  C[C@H](Oc1cc(Oc2c3ccccc3nn2C)c(Cl)cc1Cl)C(=O)O     5.8 nM
2  Cc1nn(C)c(Sc2cc(O[C@@H](C)C(=O)O)c(Cl)cc2Cl)c1C      10 nM
3  Cc1nn(C)c(Oc2cc(O[C@@H](C)C(=O)O)c(Cl)cc2Cl)c1/C=N/O      25 nM
